- PROTOCOL: Protein binding in human serum
- Assay type: ADME, cell-free
- DETAILS: read-out: PB (converted)
ASSAY_METRIC: fraction unbound
Answer using only a numeral; do not append any unit.

Supply reported fraction unbound belonging to this molecule: CC(C)(CC(=O)NC1CC1)CC(=O)N[C@H]1C2CC3CC1C[C@](O)(C3)C2 0.6

----------
I'd appreciate it if you could supply IC50 values for the items below.
- SYSTEM_UNDER_TEST: UniProtKB P80365
- Sequence (P80365 whole entry): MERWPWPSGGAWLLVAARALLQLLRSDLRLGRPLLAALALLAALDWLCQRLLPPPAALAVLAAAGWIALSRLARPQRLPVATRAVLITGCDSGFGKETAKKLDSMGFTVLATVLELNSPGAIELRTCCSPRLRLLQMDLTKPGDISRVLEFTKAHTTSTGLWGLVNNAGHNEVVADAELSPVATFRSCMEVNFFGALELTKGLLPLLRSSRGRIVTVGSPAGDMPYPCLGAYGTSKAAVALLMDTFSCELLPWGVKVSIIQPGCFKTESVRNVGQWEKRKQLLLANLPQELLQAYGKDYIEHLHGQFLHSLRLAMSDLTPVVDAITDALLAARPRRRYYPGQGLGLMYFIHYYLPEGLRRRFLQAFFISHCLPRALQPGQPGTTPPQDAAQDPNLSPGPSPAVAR
- PROTOCOL: Inhibition of human recombinant 11beta-HSD2 expressed in Escherichia coli assessed as cortisol level after 60 mins by HTRF assay

Supply reported IC50 belonging to this compound: CC(C)(CC(=O)NC1CC1)CC(=O)N[C@H]1C2CC3CC1C[C@](C(N)=O)(C3)C2 > 10 µM

Supply reported IC50 belonging to this compound: CC(C)(CC(=O)NC1CC1)CC(=O)N[C@H]1C2CC3CC1C[C@](O)(C3)C2 > 10 µM

----------
- SYSTEM_UNDER_TEST: 11-beta-hydroxysteroid dehydrogenase 1 (Homo sapiens, UniProt P28845)
- Sequence (P28845 whole entry): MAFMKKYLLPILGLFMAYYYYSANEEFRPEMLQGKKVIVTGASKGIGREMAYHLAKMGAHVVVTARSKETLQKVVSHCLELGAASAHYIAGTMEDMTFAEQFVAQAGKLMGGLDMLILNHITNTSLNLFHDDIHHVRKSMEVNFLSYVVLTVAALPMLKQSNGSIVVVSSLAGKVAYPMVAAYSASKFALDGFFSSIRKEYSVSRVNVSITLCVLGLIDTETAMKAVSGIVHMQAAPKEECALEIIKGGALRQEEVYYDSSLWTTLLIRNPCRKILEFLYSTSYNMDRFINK
- PROTOCOL: Inhibition of human 11beta-HSD1
ASSAY_METRIC: pIC50
The value called pIC50 is obtained by taking minus log10 of the concentration in mol/L.

Supply reported pIC50 belonging to this molecule: O=C(O)CC1(CC(=O)NCc2ccc(F)cc2Cl)CCCC1 5.92

----------
- SYSTEM_UNDER_TEST: 11-beta-hydroxysteroid dehydrogenase 1 (Mus musculus)
- Sequence (P50172 whole entry): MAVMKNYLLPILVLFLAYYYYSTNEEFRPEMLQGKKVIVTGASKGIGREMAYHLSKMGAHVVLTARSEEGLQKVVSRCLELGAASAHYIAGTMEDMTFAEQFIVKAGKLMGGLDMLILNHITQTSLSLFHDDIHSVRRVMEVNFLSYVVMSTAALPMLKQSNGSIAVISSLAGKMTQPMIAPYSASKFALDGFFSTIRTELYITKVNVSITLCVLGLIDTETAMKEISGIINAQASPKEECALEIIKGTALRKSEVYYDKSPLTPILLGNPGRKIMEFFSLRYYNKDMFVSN
- PROTOCOL: Inhibition of 11beta-HSD1 in mouse liver microsome
ASSAY_METRIC: IC50 (nM)
Express your answer in nM, writing the number without its unit.

Supply reported IC50 belonging to this molecule: CC(C)(CC(=O)NC1CC1)CC(=O)N[C@H]1C2CC3CC1C[C@](C(N)=O)(C3)C2 10

Supply reported IC50 belonging to this molecule: CC(C)(CC(=O)NC1CC1)CC(=O)N[C@H]1C2CC3CC1C[C@](O)(C3)C2 88

----------
- PROTOCOL: Clearance in rat at 0.2 mg/kg, iv and 0.5 mg/kg, po
- Format: ADME, organism-based
- DETAILS: in vivo
ASSAY_METRIC: clearance

Supply reported clearance belonging to this compound: CC(C)(CC(=O)NC1CC1)CC(=O)N[C@H]1C2CC3CC1C[C@](O)(C3)C2 30 mL/min/kg

Supply reported clearance belonging to this compound: CC(C)(CC(=O)NC1CC1)CC(=O)N[C@H]1C2CC3CC1C[C@](C(N)=O)(C3)C2 55 mL/min/kg

----------
- PROTOCOL: Half life in rat plasma at 0.2 mg/kg, iv and 0.5 mg/kg, po
- Type: ADME, organism-based
I'd appreciate it if you could supply half-life values for the items below.

Supply reported half-life belonging to this molecule: CC(C)(CC(=O)NC1CC1)CC(=O)N[C@H]1C2CC3CC1C[C@](C(N)=O)(C3)C2 36 min

Supply reported half-life belonging to this molecule: CC(C)(CC(=O)NC1CC1)CC(=O)N[C@H]1C2CC3CC1C[C@](O)(C3)C2 72 min
